Reported values of IC90 for individual entries
- Test system: chloroquine-resistant strain FcB1 of P. falciparum
- assayName: Anti-Plasmodium activity, [3H]hypoxanthine microdilution on asynchronous cultures
- Type: cell-based, Plasmodium falciparum
- conditionSet: Plasmodium falciparum, 48 h; Figure 2, series A (amide linkage); strain FcB1; 90% growth inhibition; read-out: CI90 (the source's name)

chemSmiles | comparisonSymbol | IC90 / µM
CCCCCCCCCCCCCC(=O)N[C@@H](CO)[C@@H](O)c1ccc([N+](=O)[O-])cc1 | = | 36
CCCCCCCCCCCC(=O)N[C@H](CO)[C@H](O)c1ccc([N+](=O)[O-])cc1 | = | 36.3
CCCCCCCCCCCCCCCCCC(=O)N[C@H](CO)[C@H](O)c1ccc([N+](=O)[O-])cc1 | > | 50

These data points were gathered from paper PMC539285.
